- ASSAYED TARGET: Artificial Cell Surface (ACS): biotinylated cell surface proteins of human PBMCs bound to a streptavidin column (human)
- MEASUREMENT PROTOCOL: adsorption on ACS column, MALDI-TOF ms
QUANTITY KIND: Percent Absorbed (%)
Give a bare numeral; the unit % is implied.

# input Please report the measured Percent Absorbed for DKLCTVATLRETYGEM [Asp-N-generated albumin fragment, SEQ ID NO 222]
# output 65

# input Please report the measured Percent Absorbed for LDELRDEGK [Trypsin-generated albumin fragment, SEQ ID NO 215]
# output 2

# input Please report the measured Percent Absorbed for KVPQVSTPTLVEVSR [Trypsin-generated albumin fragment, SEQ ID NO 195]
# output 64

# input Please report the measured Percent Absorbed for VFLGMFLYEYARRHPDYSVVLLLRLAKTYETTLEKCCAAA [Asp-N-generated albumin fragment, SEQ ID NO 227]
# output 100

Entry source: patent US20180177842A1
